target: Human BCL-XL protein (N-terminal HiBiT tagged BCL-XL in HT1080 cells) (Homo sapiens, UniProt Q07817); construct: expressed in transfected cells; host or cells: HT-1080 (ATCC CCL-121), stably transduced with lentivirus pLV-UBC-N-HiBiT-BCL-XL-PGK-puro and selected with puromycin; experiment: HiBiT based degradation assay; type: cell-based; settings: BCL-XL degradation; HT1080 cells expressing HiBiT-BCL-XL; 6 h; read-out: EC50 (6 h)
Sequence (Q07817 whole entry): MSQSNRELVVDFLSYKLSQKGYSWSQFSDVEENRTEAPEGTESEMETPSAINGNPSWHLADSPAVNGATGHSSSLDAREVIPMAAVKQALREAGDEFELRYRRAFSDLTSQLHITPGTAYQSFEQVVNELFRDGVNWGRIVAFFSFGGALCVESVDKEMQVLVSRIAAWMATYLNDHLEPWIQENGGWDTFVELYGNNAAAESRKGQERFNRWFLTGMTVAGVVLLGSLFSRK
REPORTED METRIC: DC50

Check out these entries, answers already filled in.
Cc1c(OCC[C@H]2CCN(CC(=O)Nc3ccc4c(C5CCC(=O)NC5=O)nn(C)c4c3)C2)cccc1-c1ccc(N2CCc3cccc(C(=O)Nc4nc5ccccc5s4)c3C2)nc1C(=O)O (stereo partly shown) [Compound 219b] :: < 100 nM
Cc1c(OCCCN2CCN(CC(=O)Nc3ccc4c(C5CCC(=O)NC5=O)nn(C)c4c3)[C@H](C(F)(F)F)C2)cccc1-c1ccc(N2CCc3cccc(C(=O)Nc4nc5ccccc5s4)c3C2)nc1C(=O)O (stereo partly shown) [Compound 187a] :: 100 to 1000 nM
Cc1c(O[C@H]2CC[C@H](CCC(=O)Nc3cccc4c(C5CCC(=O)NC5=O)nn(C)c34)CC2)cccc1-c1ccc(N2CCc3cccc(C(=O)Nc4nc5ccccc5s4)c3C2)nc1C(=O)O (stereo partly shown) [Compound 124a] :: 1000 to 10000 nM

Now take the following compound into account.
q: What value of measured DC50 is listed for Cc1c(OCCN2C[C@@H](C)N(CC(=O)Nc3ccc4c(C5CCC(=O)NC5=O)nn(C)c4c3)[C@@H](C)C2)cccc1-c1ccc(N2CCc3cccc(C(=O)Nc4nc5ccccc5s4)c3C2)nc1C(=O)O (stereo partly shown) [Compound 159a] ?
a: < 100 nM
